# Subject Of Test: DNA-PK phosphorylation at Serine 2056 (Homo sapiens)
# Construct: FaDu cells were purchased from ATCC; host or cells: FaDu
# Assay Notes: Cellular Assay for Inhibition of DNA-PK Phosphorylation at Serine 2056 in FaDu cells (sandwich ELISA, neocarzinostatin)
# Format: cell-based
# Recorded Conditions: pSer2056 DNA-PK, Table 3
Quantity Name: IC50

CC(c1cnc([N+](=O)[O-])n1C)N(c1cnc2cc(N3CCOCC3)nc(O[C@H]3CC[C@@H](Nc4ncc(OCCN5CCOCC5)cn4)CC3)c2c1)S(C)(=O)=O (some centres unmarked): 10 to 30 µM
CC(c1cnn(C)c1[N+](=O)[O-])N(c1cnc2cc(N3CCOCC3)nc(O[C@H]3CC[C@@H](Nc4ncccn4)CC3)c2c1)S(C)(=O)=O (some centres unmarked): 1 to 10 µM
Cn1c(COc2cnc3cc(N4CCOCC4)nc(O[C@H]4CC[C@@H](N(C)c5ncccn5)CC4)c3c2)cnc1[N+](=O)[O-]: 10 to 30 µM
CN(C)Cc1cnc(N[C@H]2CC[C@@H](Oc3nc(N4CCOCC4)cc4ncc(OCc5cnc([N+](=O)[O-])n5C)cc34)CC2)nc1: 10 to 30 µM
Cn1c(CNS(=O)(=O)c2cnc3cc(N4CCOCC4)nc(O[C@H]4CC[C@@H](Nc5ncc(C(F)(F)F)cn5)CC4)c3c2)cnc1[N+](=O)[O-]: 10 to 30 µM

====

# Tested on: FaDu cell line
# Assay Notes: Prodrug Activation in Hypoxic Stirred Tumour Cell Suspensions
# Recorded Conditions: 10 μM, 4 hours, 5% O2
Quantity Name: Fraction of prodrug converted to active form, Oxic 5% O2

Cn1c(CN(c2cnc3cc(N4CCOCC4)nc(OC4CCC(Nc5ncc(N6CCN(CCF)CC6)cn5)CC4)c3c2)S(C)(=O)=O)cnc1[N+](=O)[O-] (stereo not drawn) [LFA2044]: D (D is 0 to 0.02)
Cn1c(CN(c2cnc3cc(N4CCOCC4)nc(O[C@H]4CC[C@@H](Nc5cncc(C(F)(F)F)n5)CC4)c3c2)S(C)(=O)=O)cnc1[N+](=O)[O-] [LFA2101]: D (D is 0 to 0.02)
Cn1c(CN(c2cnc3cc(N4CCOCC4)nc(OC4CCC(Nc5ncc(N6CCN(CC(F)F)CC6)cn5)CC4)c3c2)S(C)(=O)=O)cnc1[N+](=O)[O-] (stereo not drawn) [LFA2048]: D (D is 0 to 0.02)
Cn1c(CN(c2cnc3cc(N4CCOCC4)nc(O[C@H]4CC[C@@H](Nc5cnc(C#N)cn5)CC4)c3c2)S(C)(=O)=O)cnc1[N+](=O)[O-] [LFA2103]: D (D is 0 to 0.02)
CC(c1cnn(C)c1[N+](=O)[O-])N(c1cnc2cc(N3CCOCC3)nc(O[C@H]3CC[C@@H](Nc4ncc(C#N)cn4)CC3)c2c1)S(C)(=O)=O (stereo partly drawn) [LFA2052]: C (C is 0.02 to 0.05)
CN(C)CCOc1cnc(N[C@H]2CC[C@@H](Oc3nc(N4CCOCC4)cc4ncc(OCc5cnc([N+](=O)[O-])n5C)cc34)CC2)nc1 [LFA2088]: D (D is 0 to 0.02)
Cn1c(COc2cnc3cc(N4CCOCC4)nc(O[C@H]4CC[C@@H](Nc5cncc(C(F)(F)F)n5)CC4)c3c2)cnc1[N+](=O)[O-] [LFA2097]: D (D is 0 to 0.02)
Cn1c(CN(c2cnc3cc(N4CCOCC4)nc(OC4CCC(NC(=O)c5ncccn5)CC4)c3c2)S(C)(=O)=O)cnc1[N+](=O)[O-] (stereo not drawn) [LFA016]: D (D is 0 to 0.02)
Cn1c(COc2cnc3cc(N4CCOCC4)nc(O[C@H]4CC[C@@H](Nc5ccccn5)CC4)c3c2)cnc1[N+](=O)[O-] [LFA2083]: C (C is 0.02 to 0.05)
CC(Oc1cnc2cc(N3CCOCC3)nc(O[C@H]3CC[C@@H](Nc4ccccn4)CC3)c2c1)c1cnc([N+](=O)[O-])n1C (stereo partly drawn) [LFA2084]: C (C is 0.02 to 0.05)
CC(c1cnn(C)c1[N+](=O)[O-])N(c1cnc2cc(N3CCOCC3)nc(O[C@H]3CC[C@@H](Nc4ncc(OCCN(C)C)cn4)CC3)c2c1)S(C)(=O)=O (stereo partly drawn) [LFA2073]: C (C is 0.02 to 0.05)
CC(c1cnn(C)c1[N+](=O)[O-])N(c1cnc2cc(N3CCOCC3)nc(O[C@H]3CC[C@@H](Nc4ncc(N5CCN(C)CC5)cn4)CC3)c2c1)S(C)(=O)=O (stereo partly drawn) [LFA2067]: B (B is 0.05 to 0.15)
CC(c1cnc([N+](=O)[O-])n1C1CC1)N(c1cnc2cc(N3CCOCC3)nc(OC3CCC(Nc4ccn5nccc5n4)CC3)c2c1)S(C)(=O)=O (stereo not drawn) [LFA2051]: D (D is 0 to 0.02)
CC(c1cnn(C)c1[N+](=O)[O-])N(c1cnc2cc(N3CCOCC3)nc(OC3CCC(Nc4ccn5nccc5n4)CC3)c2c1)S(C)(=O)=O (stereo not drawn) [LFA2050]: B (B is 0.05 to 0.15)
CC(NS(=O)(=O)c1cnc2cc(N3CCOCC3)nc(O[C@H]3CC[C@@H](Nc4ncc(OCCN5CCN(C)CC5)cn4)CC3)c2c1)c1cnc([N+](=O)[O-])n1C (stereo partly drawn) [LFA2090]: D (D is 0 to 0.02)

====

# Subject Of Test: DNA-PK (Homo sapiens)
# Construct: purchased Invitrogen PR9107A
# Assay Notes: DNA-PK Assay for Biochemical Enzymatic Inhibition (ADP Glo Kinase assay)
# Recorded Conditions: DNA-PK enzyme, Table 1
pIC50: −log10 of the molar value.
Entries annotated with measured pIC50
Quantity Name: pIC50

CNC(=O)COc1cnc(N[C@H]2CC[C@@H](Oc3nc(N4CCOCC4)cc4ncccc34)CC2)nc1: > 9.30
O=C(Nc1ccccn1)[C@H]1CC[C@@H](Oc2nc(N3CCOCC3)cc3ncccc23)CC1 [Compound 154c]: 8.00 to 9.00
c1ccc(CSc2cnc3cc(N4CCOCC4)nc(O[C@H]4CC[C@@H](Nc5ncccn5)CC4)c3c2)cc1 [Compound 200c]: 6.82 to 8.00
COC(=O)c1cnc2cc(N3CCOCC3)nc(O[C@H]3CC[C@@H](n4ccnc4)CC3)c2c1: 8.00 to 9.00
CCOC(=O)c1cnc2cc(N3CCOCC3)nc(O[C@H]3CC[C@@H](n4ccnc4)CC3)c2c1: 6.82 to 8.00
O=C(Nc1ccc(F)cc1)N[C@H]1CC[C@@H](Oc2nc(N3CCOCC3)cc3ncccc23)CC1: 8.00 to 9.00
O=S(=O)(Nc1cnc2cc(N3CCOCC3)nc(O[C@H]3CC[C@@H](Nc4ncccn4)CC3)c2c1)C1CC1: 9.00 to 9.30
NC(=O)c1cnc2cc(N3CCOCC3)nc(O[C@H]3CC[C@@H](n4ccnc4)CC3)c2c1: 8.00 to 9.00
CN(C)C(=O)Cn1c(=O)n(C)c2nc(N[C@H]3CC[C@@H](Oc4nc(N5CCOCC5)cc5ncccc45)CC3)ncc21: > 9.30
O=C(COc1cnc(N[C@H]2CC[C@@H](Oc3nc(N4CCOCC4)cc4ncccc34)CC2)nc1)N1CC(F)C1: > 9.30
CN(C)C(=O)COc1cnc(N[C@H]2CC[C@@H](Oc3nc(N4CCOCC4)cc4ncc(NS(C)(=O)=O)cc34)CC2)nc1: > 9.30
CN(C)C(=O)COc1ccc(N[C@H]2CC[C@@H](Oc3nc(N4CCOCC4)cc4ncccc34)CC2)nc1: > 9.30
CC(C)(O)C#Cc1cnc2cc(N3CCOCC3)nc(O[C@H]3CC[C@@H](n4ccnc4)CC3)c2c1: 6.82 to 8.00
O=S(=O)(Nc1cnc2cc(N3CCOCC3)nc(O[C@H]3CC[C@@H](Nc4ncccn4)CC3)c2c1)C1CCC1: 8.00 to 9.00
O=C(O)c1cnc2cc(N3CCOCC3)nc(O[C@H]3CC[C@@H](Nc4ncccn4)CC3)c2c1: > 9.30
CN(C)CC(=O)N[C@H]1CC[C@@H](Oc2nc(N3CCOCC3)cc3ncccc23)CC1: 6.82 to 8.00
O=C(COc1cnc(N[C@H]2CC[C@@H](Oc3nc(N4CCOCC4)cc4ncccc34)CC2)nc1)N1CCNCC1: > 9.30
NC(=O)Nc1cnc2cc(N3CCOCC3)nc(O[C@H]3CC[C@@H](Nc4ncccn4)CC3)c2c1: 8.00 to 9.00
O=C(COc1cnc(N[C@H]2CC[C@@H](Oc3nc(N4CCOCC4)cc4ncccc34)CC2)nc1)N1CCCC1: 9.00 to 9.30

====

# System: pDNA-PK induction in HCT116 tumour spheroids
# Assay Notes: Multicellular tumour spheroid + radiation, pDNA-PK (ser2056) inhibition, immunohistochemical endpoint, HCT116
# Assay type: cell-based
# Recorded Conditions: Homo sapiens, HCT-116; 20 Gy, 2 hours following radiation, 20% O2; Example 9 Study 2; read-out: Spheroid Cell line: HCT116 Immunohistochemical endpoint pDNA-PK inhibition EC50
Quantity Name: EC50

O=C(COc1cnc(N[C@H]2CC[C@@H](Oc3nc(N4CCOCC4)cc4ncccc34)CC2)nc1)N1CCC1: 0.5 to 1 µM
CCCS(=O)(=O)NC(=O)c1cnc2cc(N3CCOCC3)nc(O[C@H]3CC[C@@H](n4ccnc4)CC3)c2c1: 10 to 100 µM
c1cnc2cc(N3CCOCC3)nc(O[C@H]3CC[C@@H](Nc4ncc(OCCN5CCNCC5)cn4)CC3)c2c1: 1 to 10 µM
O=C(Nc1ccccc1)N[C@H]1CC[C@@H](Oc2nc(N3CCOCC3)cc3ncccc23)CC1: 0.5 to 1 µM
O=S(=O)(CC(F)F)Nc1cnc2cc(N3CCOCC3)nc(O[C@H]3CC[C@@H](Nc4ncccn4)CC3)c2c1: 1 to 10 µM
O=C(NO)c1cnc2cc(N3CCOCC3)nc(O[C@H]3CC[C@@H](n4ccnc4)CC3)c2c1: 1 to 10 µM
CCOC(=O)c1cnc(N[C@H]2CC[C@@H](Oc3nc(N4CCOCC4)cc4ncccc34)CC2)nc1NC1CCOCC1: 1 to 10 µM
Cn1c(=O)n(C)c2nc(N[C@H]3CC[C@@H](Oc4nc(N5CCOCC5)cc5ncccc45)CC3)ncc21: 0.01 to 0.5 µM
Cn1c(=O)n(C2CCOCC2)c2nc(N[C@H]3CC[C@@H](Oc4nc(N5CCOCC5)cc5ncccc45)CC3)ncc21: 0.5 to 1 µM
CON(C)C(=O)COc1cnc(N[C@H]2CC[C@@H](Oc3nc(N4CCOCC4)cc4ncccc34)CC2)nc1: 0.5 to 1 µM
O=C(COc1cnc(N[C@H]2CC[C@@H](Oc3nc(N4CCOCC4)cc4ncccc34)CC2)nc1)N1CC(O)C1: 0.5 to 1 µM
CN(C)C(=O)COc1cnc(N[C@H]2CC[C@@H](Oc3nc(N4CCOCC4)cc4ncc(Br)cc34)CC2)nc1: 0.5 to 1 µM
NC(=O)N[C@H]1CC[C@@H](Oc2nc(N3CCOCC3)cc3ncccc23)CC1: 1 to 10 µM
O=C(Nc1ccc(F)cc1)N[C@H]1CC[C@@H](Oc2nc(N3CCOCC3)cc3ncccc23)CC1: 1 to 10 µM
O=C(Nc1ccncc1)[C@H]1CC[C@@H](Oc2nc(N3CCOCC3)cc3ncccc23)CC1 [Compound 154e]: 1 to 10 µM

These measurements were taken from patent US20240239790A1.
